# System: Cephalothinsensitive E. coli (2 strains), Kl. pneumoniae (1 strain) and Pr. mirabilis (2 strains)
# test_summary: MIC, two-fold serial agar dilution, group (G-)-Ia
# Format: cell-based
# experimental_context: Mueller-Hinton agar; 5 strains; read-out: Geometric Mean of MIC, (G-)-Ia
Please go through the items and note down their MIC.
Kindly answer with a numeric value in µg/mL, unit omitted.

MIC for NC(=O)c1cc[n+](C/C=C/C2=C(C(=O)[O-])N3C(=O)C(NC(=O)C(=NOC4CCCC4)c4nsc(N)n4)C3SC2)cc1 (stereo not drawn) ?
0.2

Same question, CON=C(C(=O)NC1C(=O)N2C(C(=O)[O-])=C(/C=C/C[n+]3ccc(CO)cc3)CSC12)c1nsc(N)n1 (stereo not drawn) this time
0.029

Same question, CON=C(C(=O)NC1C(=O)N2C(C(=O)[O-])=C(/C=C/C[n+]3ccccc3)CSC12)c1nsc(N)n1 (stereo not drawn) this time
0.016

Same question, CON=C(C(=O)NC1C(=O)N2C(C(=O)[O-])=C(/C=C/C[n+]3cccc(CO)c3)CSC12)c1nsc(N)n1 (stereo not drawn) this time
0.029

Same question, CON=C(C(=O)NC1C(=O)N2C(C(=O)[O-])=C(C=CC[n+]3ccc4sc(N)nc4c3)CS[C@H]12)c1nsc(N)n1 (stereo partly drawn) this time
0.0071

Same question, CON=C(C(=O)NC1C(=O)N2C(C(=O)[O-])=C(/C=C/C[n+]3ccc(SCC(=O)O)cc3)CSC12)c1nsc(N)n1 (stereo not drawn) this time
0.0095
